molecular target: CFTR G551D mutant (Homo sapiens, UniProt P13569, G551D); construct: expressed in transfected cells; host or cells: HEK293 cells, reverse transfection with plasmids; test: YFP-halide influx assay for the CFTR-G551D mutation (HEK293 cells); assay type: cell-based; conditions: forskolin 10.67 μM
Sequence (P13569 whole entry G551D): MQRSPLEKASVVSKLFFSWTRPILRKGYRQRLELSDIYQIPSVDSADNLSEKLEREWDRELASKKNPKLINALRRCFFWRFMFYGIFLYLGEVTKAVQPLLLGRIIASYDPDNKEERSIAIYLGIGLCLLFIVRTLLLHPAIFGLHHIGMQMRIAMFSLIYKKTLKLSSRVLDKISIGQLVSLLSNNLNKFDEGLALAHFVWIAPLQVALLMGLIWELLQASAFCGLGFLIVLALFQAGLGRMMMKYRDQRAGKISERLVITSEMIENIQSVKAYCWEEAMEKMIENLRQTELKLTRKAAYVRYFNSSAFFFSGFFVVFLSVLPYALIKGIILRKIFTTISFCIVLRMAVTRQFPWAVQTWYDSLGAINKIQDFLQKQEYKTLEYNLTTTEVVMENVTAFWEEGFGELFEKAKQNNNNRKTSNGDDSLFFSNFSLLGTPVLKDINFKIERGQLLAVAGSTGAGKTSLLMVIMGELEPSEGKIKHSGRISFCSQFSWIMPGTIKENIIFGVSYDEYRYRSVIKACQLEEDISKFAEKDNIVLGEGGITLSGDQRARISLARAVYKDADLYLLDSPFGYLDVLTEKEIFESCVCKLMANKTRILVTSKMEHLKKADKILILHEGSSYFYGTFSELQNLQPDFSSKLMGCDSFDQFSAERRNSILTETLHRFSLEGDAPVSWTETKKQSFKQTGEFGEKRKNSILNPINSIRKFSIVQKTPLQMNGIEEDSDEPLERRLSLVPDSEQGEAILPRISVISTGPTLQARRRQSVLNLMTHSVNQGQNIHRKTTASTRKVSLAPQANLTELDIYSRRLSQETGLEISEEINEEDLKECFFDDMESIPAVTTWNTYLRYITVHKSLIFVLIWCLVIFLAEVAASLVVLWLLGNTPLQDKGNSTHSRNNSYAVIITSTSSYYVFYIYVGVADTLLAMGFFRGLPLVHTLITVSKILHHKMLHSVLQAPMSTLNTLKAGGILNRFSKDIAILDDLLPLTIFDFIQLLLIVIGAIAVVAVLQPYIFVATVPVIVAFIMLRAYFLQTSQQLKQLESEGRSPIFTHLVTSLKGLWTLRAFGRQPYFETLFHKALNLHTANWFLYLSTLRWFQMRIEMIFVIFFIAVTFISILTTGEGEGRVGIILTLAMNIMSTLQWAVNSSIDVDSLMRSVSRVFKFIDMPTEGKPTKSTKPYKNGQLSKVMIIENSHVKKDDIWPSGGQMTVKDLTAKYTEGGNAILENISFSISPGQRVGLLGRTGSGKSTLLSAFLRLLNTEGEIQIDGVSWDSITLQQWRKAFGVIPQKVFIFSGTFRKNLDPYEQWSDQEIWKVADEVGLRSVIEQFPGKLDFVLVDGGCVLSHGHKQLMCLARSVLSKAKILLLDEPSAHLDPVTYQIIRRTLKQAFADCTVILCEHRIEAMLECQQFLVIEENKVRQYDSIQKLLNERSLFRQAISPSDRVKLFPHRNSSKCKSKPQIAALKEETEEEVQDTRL
Please enter condition met where % Activation is greater than or equal to 50%, and condition not met where it is lower.

Solved cases (5 shown):
>>> print(df.to_string())
                                   compound        class_label
0  COc1nc(C(=O)NC[C@H](C)O)c(N)cc1S(=O)(=O)c1ccc(OC(F)(F)F)cc1 [Compound 280]      condition met
1  Nc1cc(S(=O)(=O)c2ccc(OC(F)(F)F)cc2F)cnc1C(=O)NCC(O)COCC1CC1 (stereo not shown) [Compound 169]      condition met
2  CC(C)C(C)NC(=O)c1ncc(S(=O)(=O)c2ccc(C(F)(F)F)cc2)cc1N (stereo not shown) [Compound 188]  condition not met
3  Nc1cc(S(=O)(=O)c2ccc(F)cc2)cnc1C(=O)NCC1(O)CC1 [Compound 30]  condition not met
4  Nc1cc(S(=O)(=O)c2ccc(C(F)(F)F)cc2)cnc1C(=O)NCC1(O)CC1 [Compound 228]      condition met

Ask | Can Nc1cc(S(=O)(=O)c2ccc(C(F)(F)F)cc2)cnc1C(=O)N1CC(OC(F)F)C1 [Compound 158] be said to have % Activation at or above 50%?
Reply | condition not met

Ask | Evaluate Nc1cc(S(=O)(=O)N2CCCC(F)C2)cnc1C(=O)NCC(O)C(F)(F)F (stereo not shown) [Compound 194] : % Activation at minimum 50%?
Reply | condition met

Ask | State whether the measured % Activation reaches 50%, counting equality as reaching it, for Nc1cc(S(=O)(=O)c2ccccc2OC(F)(F)F)cnc1C(=O)NCCO [Compound 75]
Reply | condition met

Ask | For this compound, is measured % Activation 50% or higher? Nc1cc(S(=O)(=O)c2ccc(C(F)(F)F)cc2F)cnc1C(=O)N[C@@H]1COCC[C@@H]1O (racemic) [Compound 218]
Reply | condition not met

* * *

target: CFTR ΔF508 mutant (Homo sapiens, UniProt P13569, DEL508-508); experiment: YFP-halide influx assay for the CFTR-ΔF508 mutation (CFBE41o- cells); settings: forskolin 10.67 μM, from (1−F/F0) vs concentration plot
Sequence (P13569 with tags, fused parts or gaps DEL508-508): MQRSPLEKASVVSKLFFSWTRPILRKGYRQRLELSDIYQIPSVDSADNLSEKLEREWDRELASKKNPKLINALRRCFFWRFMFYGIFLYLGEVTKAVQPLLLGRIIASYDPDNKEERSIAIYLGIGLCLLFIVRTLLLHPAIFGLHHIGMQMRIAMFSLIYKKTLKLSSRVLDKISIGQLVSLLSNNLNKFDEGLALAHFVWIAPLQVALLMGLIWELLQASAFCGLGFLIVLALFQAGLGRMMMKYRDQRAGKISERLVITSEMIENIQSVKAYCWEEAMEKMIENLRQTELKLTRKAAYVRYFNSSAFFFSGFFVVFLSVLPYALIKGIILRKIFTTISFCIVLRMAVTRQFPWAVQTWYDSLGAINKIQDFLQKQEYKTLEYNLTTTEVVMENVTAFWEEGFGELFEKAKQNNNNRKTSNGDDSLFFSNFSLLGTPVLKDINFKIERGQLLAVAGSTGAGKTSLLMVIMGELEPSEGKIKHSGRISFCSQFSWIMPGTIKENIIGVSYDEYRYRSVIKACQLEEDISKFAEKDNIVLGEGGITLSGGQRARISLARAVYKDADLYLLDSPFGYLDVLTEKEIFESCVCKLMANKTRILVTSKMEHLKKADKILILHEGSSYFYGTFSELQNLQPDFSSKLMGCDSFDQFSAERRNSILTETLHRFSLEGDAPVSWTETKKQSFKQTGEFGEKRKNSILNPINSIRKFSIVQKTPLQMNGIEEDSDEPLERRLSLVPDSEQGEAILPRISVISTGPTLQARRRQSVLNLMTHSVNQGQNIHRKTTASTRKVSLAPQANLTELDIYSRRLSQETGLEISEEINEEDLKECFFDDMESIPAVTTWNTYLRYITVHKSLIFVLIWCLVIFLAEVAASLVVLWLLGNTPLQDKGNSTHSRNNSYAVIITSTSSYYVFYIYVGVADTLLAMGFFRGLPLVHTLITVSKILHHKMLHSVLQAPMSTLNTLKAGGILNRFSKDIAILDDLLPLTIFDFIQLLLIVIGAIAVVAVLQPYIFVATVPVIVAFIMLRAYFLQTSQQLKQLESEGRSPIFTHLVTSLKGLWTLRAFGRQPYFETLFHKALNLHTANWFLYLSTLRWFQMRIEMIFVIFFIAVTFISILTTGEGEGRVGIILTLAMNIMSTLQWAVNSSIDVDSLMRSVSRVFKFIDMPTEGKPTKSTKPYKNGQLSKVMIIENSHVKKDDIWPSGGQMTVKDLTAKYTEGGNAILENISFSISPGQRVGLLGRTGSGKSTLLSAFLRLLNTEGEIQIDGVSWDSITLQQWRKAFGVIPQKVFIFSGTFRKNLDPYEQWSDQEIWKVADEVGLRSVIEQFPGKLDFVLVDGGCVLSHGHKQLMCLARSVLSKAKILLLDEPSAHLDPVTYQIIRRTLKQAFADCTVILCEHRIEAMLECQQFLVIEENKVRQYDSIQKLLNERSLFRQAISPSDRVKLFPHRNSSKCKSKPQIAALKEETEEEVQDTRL
Give pEC50 for every item shown.
Give bare numbers, as −log10 of the molar value.

Recorded pEC50, per entry:
                         chemical_structure  recorded_number
0  Nc1cc(S(=O)(=O)c2ccc(C(F)(F)F)cc2)cnc1C(=O)N1CC2(CCCOC2)C1             7.29
1  COCCCNC(=O)c1ncc(S(=O)(=O)c2ccc(C(F)(F)F)cc2)cc1N             7.39
2  CC1(C)CN(C(=O)c2ncc(S(=O)(=O)c3ccc(C(F)(F)F)cc3F)cc2N)C1             7.65
3  Nc1cc(S(=O)(=O)c2ccc(OC(F)(F)F)cc2)cnc1C(=O)Nc1cc[nH]n1             8.26
4  Nc1cc(S(=O)(=O)c2ccc(OC(F)(F)F)cc2)cnc1C(=O)NCC1(O)CCOCC1             7.26

# context switch: different compound, same pEC50
Ask | Which value of pEC50 has been reported for `COCC(=O)NNC(=O)c1ncc(S(=O)(=O)c2ccc(OC(F)(F)F)cc2)cc1N` in the records?
Reply | 7.06

* * *

For each of the molecules below, state its EC50.
molecular target: CFTR G551D mutant (Homo sapiens, UniProt P13569, G551D); test: YFP-halide influx assay for the CFTR-G551D mutation (HEK293 cells); details: forskolin 10.67 μM
Numbers only, in µM.

Example entries begin here.
>>> print(df.to_string())
                                   molecule  recorded_number
0  CC(C)C1(O)CN(C(=O)c2ncc(S(=O)(=O)c3ccc(C(F)(F)F)cc3)cc2N)C1 [Compound 159]            0.238
1  C[C@H](O)CNC(=O)c1nc(Oc2cccc(F)c2)c(S(=O)(=O)c2ccc(OC(F)(F)F)cc2)cc1N [Compound 284]             1.62
2  Nc1cc(S(=O)(=O)c2ccc(OC(F)(F)F)cc2)cnc1C(=O)NC1CC(F)(F)C1 [Compound 122]            0.425

Parameter requested: EC50. Apply to each item below.
1. Nc1cc(S(=O)(=O)c2ccc(C(F)(F)F)cc2)cnc1C(=O)N[C@H]1CCC[C@@H]1O [Compound 215]
2. CC1(C)CN(C(=O)c2ncc(S(=O)(=O)c3ccc(C(F)(F)F)cc3)cc2N)C1 [Compound 110]
3. Nc1cc(S(=O)(=O)c2ccc(OC(F)(F)F)cc2)cnc1C(=O)NCC1(CO)CCC1 [Compound 23]

Reply |
1. 0.389
2. 1.14
3. 2.15

* * *

biological target: CFTR ΔF508 mutant (Homo sapiens, UniProt P13569, DEL508-508); construct: expressed in transfected cells; host or cells: CFBE41o- cells, adenoviral transduction; assay: YFP-halide influx assay for the CFTR-ΔF508 mutation (CFBE41o- cells); assay type: cell-based; settings: forskolin 10.67 μM
experimental readout: % Activation (%)
One number for each entry, in %.

// solved cases for % Activation follow
>>> print(df.to_string())
                                   compound  recorded_number
0  Nc1cc(S(=O)(=O)c2ccc(OC(F)(F)F)cc2)cnc1C(=O)N1CC(O)C1 [Compound 32]             96.1
1  COCCN(C)S(=O)(=O)c1cnc(C(=O)NC[C@H](C)O)c(N)c1 [Compound 277]             65.5
2  Nc1cc(S(=O)(=O)c2cccc(F)c2)cnc1C(=O)NC[C@@H](O)C(F)(F)F [Compound 254]            106.0
3  C[C@H](O)CNC(=O)c1nc(OCCN(C)C)c(S(=O)(=O)c2ccc(OC(F)(F)F)cc2)cc1N [Compound 289]             97.1
4  Nc1cc(S(=O)(=O)c2ccc(C(F)(F)F)cc2F)cnc1C(=O)NC[C@@H](O)C(F)(F)F [Compound 107]            103.0
5  Nc1cc(S(=O)(=O)c2ccc(OC(F)(F)F)cc2)cnc1C(=O)N[C@@H]1CCCC[C@H]1O (racemic) [Compound 17]            113.0
6  COCCS(=O)(=O)c1cc(N)c(C(=O)NC[C@H](C)O)nc1-c1ccc(F)cc1 [Compound 265]             92.4

Ask | # % Activation lookup, item COCC(O)CNC(=O)c1ncc(S(=O)(=O)c2ccc(C(F)(F)F)cc2)cc1N (centres unmarked) [Compound 239]
Reply | 95.8

* * *

Target: CFTR ΔF508 mutant (Homo sapiens, UniProt P13569, DEL508-508)
Construct: expressed in transfected cells; host or cells: CFBE41o- cells, adenoviral transduction
Test: YFP-halide influx assay for the CFTR-ΔF508 mutation (CFBE41o- cells)
Format: cell-based
Settings: forskolin 10.67 μM
Description: The YFP halide influx assay measured the functionality of the cystic fibrosis Transmembrane Conductance regulator (CFTR) channels in the cystic fibrosis bronchial epithelium cell line CFBE41o-. The assay was used to evaluate the capacity of compounds to increase the open probability of existing CFTR channels in the membrane. […] The I-induced quenching of fluorescence was recorded on an immediately after injection of iodide for 2 minutes on an FDSS/μCell (Hamamatsu). […]
So I've got a bunch of compounds here, and I need their % Activation values.

Would you please look over these solved cases?
>>> print(df.to_string())
                                   compound  result
0  Nc1cc(S(=O)(=O)c2ccc(F)cc2)cnc1C(=O)NC[C@H](O)C(F)(F)F [Compound 25]  108.3%
1  CN(CCC(F)(F)F)S(=O)(=O)c1cnc(C(=O)NCC(O)C(F)(F)F)c(N)c1 (stereo not shown) [Compound 225]  106.7%
2  CC(C)S(=O)(=O)c1cc(N)c(C(=O)NC[C@H](C)O)nc1-c1ccc(F)cc1 [Compound 264]   76.0%

Ask | Please look up its % Activation: Nc1cc(S(=O)(=O)c2ccc(C(F)(F)F)cc2)c(C2CC2)nc1C(=O)NCCO [Compound 258]
Reply | 119.0%

* * *

target: CFTR G551D mutant (Homo sapiens, UniProt P13569, G551D); test: YFP-halide influx assay for the CFTR-G551D mutation (HEK293 cells); conditions: forskolin 10.67 μM
experimental readout: EC50 (µM)
Give bare numbers, in µM.

In [3]: df
Out[3]:
                                   compound  unit_tag  recorded_number
0  Nc1cc(S(=O)(=O)c2ccc(C(F)(F)F)cc2F)cnc1C(=O)N[C@@H]1COCC[C@@H]1O (racemic) [Compound 218]        µM             1.52
1  Nc1cc(S(=O)(=O)c2ccc(OC(F)(F)F)cc2)cnc1C(=O)NCC1CC1 [Compound 155]        µM            0.987
2  Nc1cc(S(=O)(=O)c2ccc(C(F)(F)F)cc2F)cnc1C(=O)N1CC(O)(C(F)(F)F)C1 [Compound 112]        µM            0.157

Ask | Query: EC50; subject: Nc1cc(S(=O)(=O)N2CCOCC2)cnc1C(=O)NCC(O)C(F)(F)F (stereo not shown) [Compound 139]
Reply | 5.77
